Target: T1, FZD10 CRD (Homo sapiens, UniProt Q9ULW2)
T1 construct: 30-156; GPI anchor signal (C); expressed in transfected cells; host or cells: CHO cells, lentiviral pLenti-puro
T1 sequence (Q9ULW2 30-156): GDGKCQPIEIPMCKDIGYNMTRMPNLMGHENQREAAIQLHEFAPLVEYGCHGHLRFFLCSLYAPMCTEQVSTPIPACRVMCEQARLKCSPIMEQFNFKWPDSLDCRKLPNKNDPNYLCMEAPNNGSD
Experiment: Immunofluorescence of anti-FZD5 Fab binding to CHO cells overexpressing Frizzled CRD
Design: key: −: no binding; +: very weak binder; ++: weak binder; +++: good binder; ++++: very good binder
Quantity: Immunofluorescence binding, Frizzled CRD overexpressed on CHO cells: FZD10

[[record]]
molecule = "Fab-2926: anti-FZD5 Fab with antibody variable region Fv-2926; CDR SEQ ID NOs: 35, 36, 65, 103, 141, 173 (antibody, V domains shown) VH: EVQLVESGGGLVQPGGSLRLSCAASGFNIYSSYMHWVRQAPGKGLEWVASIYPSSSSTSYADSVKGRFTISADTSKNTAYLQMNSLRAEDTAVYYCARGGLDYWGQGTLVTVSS VL: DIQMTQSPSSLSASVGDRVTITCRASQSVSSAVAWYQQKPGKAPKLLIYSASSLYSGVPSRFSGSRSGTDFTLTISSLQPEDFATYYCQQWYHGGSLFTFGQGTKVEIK"
observed_result = "−"

[[record]]
molecule = "Fab-2936: anti-FZD5 Fab with antibody variable region Fv-2936; CDR SEQ ID NOs: 35, 36, 75, 112, 151, 179 (antibody, V domains shown) VH: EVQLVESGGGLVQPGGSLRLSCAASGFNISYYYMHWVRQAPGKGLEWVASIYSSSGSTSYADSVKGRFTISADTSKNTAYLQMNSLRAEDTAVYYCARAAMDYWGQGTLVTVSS VL: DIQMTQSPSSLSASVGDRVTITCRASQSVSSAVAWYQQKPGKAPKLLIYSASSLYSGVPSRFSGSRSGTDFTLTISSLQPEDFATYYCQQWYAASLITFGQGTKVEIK"
observed_result = "−"

